Source of measurements: the supplement of paper PMC10681739

Biological target: ETS1 (UniProt P14921)
Sequence: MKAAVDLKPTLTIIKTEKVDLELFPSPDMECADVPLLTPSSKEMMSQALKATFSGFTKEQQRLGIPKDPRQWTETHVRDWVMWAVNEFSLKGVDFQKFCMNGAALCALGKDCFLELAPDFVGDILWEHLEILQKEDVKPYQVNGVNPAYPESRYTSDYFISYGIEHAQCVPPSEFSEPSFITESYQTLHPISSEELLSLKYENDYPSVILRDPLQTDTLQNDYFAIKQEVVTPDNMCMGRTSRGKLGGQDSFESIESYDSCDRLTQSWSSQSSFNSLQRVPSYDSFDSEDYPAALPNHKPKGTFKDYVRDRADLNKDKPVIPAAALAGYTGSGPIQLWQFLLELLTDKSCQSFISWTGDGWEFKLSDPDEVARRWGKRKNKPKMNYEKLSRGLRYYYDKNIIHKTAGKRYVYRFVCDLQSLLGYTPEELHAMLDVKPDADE
Experiment: ETS1 binding intensity (PBM fluorescence) in presence of RUNX1, normalised to ETS1-only experiment (arbitrary fluorescence units); higher = stronger binding
Conditions: ETS1 concentration 1 nM; RUNX1 concentration 25 nM
Mark NO for ETS1 binding intensity values under 2000, and YES for everything at or above.

>  <SEQ>
AGGGCGCCGCTTCCGGGAGCCCGCAAGCGGCCTCCG

>  <TARGET_OF_ASSAY>
ETS1 (UniProt P14921)

>  <LABEL_VALUE>
NO

$$$$
>  <SEQ>
AGCTTGCCGGAAGCTGGTTGTTCGCTGCGGCGACCA

>  <TARGET_OF_ASSAY>
ETS1 (UniProt P14921)

>  <LABEL_VALUE>
YES

$$$$
>  <SEQ>
AGACCCGGAAGAACTTGTCCCAGTGTTGACCACACC

>  <TARGET_OF_ASSAY>
ETS1 (UniProt P14921)

>  <LABEL_VALUE>
NO

$$$$
>  <SEQ>
GGTAAAGCAACAGGATGTGGGTGTCTGACTTACAAT

>  <TARGET_OF_ASSAY>
ETS1 (UniProt P14921)

>  <LABEL_VALUE>
YES

$$$$
>  <SEQ>
AGAGGAAGTAAATTCTAACAGTGGAAACCACAGATT

>  <TARGET_OF_ASSAY>
ETS1 (UniProt P14921)

>  <LABEL_VALUE>
YES

$$$$
>  <SEQ>
CCGGGAAGGCGGAAGCAGCAGAGACGCCGCAAGGCC

>  <TARGET_OF_ASSAY>
ETS1 (UniProt P14921)

>  <LABEL_VALUE>
NO

$$$$
>  <SEQ>
CCAACGAGCACTTCCGCTTCCCGCAGCTCCAGCGGC

>  <TARGET_OF_ASSAY>
ETS1 (UniProt P14921)

>  <LABEL_VALUE>
YES

$$$$
>  <SEQ>
TAACGCGAGAACTTCCTGCGGGCCACGCCCTCTTTC

>  <TARGET_OF_ASSAY>
ETS1 (UniProt P14921)

>  <LABEL_VALUE>
NO

$$$$
>  <SEQ>
CCGATGGCGGCGGAACTGTGGTCAGGGCTGCCCTGA

>  <TARGET_OF_ASSAY>
ETS1 (UniProt P14921)

>  <LABEL_VALUE>
NO

$$$$
>  <SEQ>
CGGGCGAGCGCAGGATGCGGTTGTCGAACGCGCGGC

>  <TARGET_OF_ASSAY>
ETS1 (UniProt P14921)

>  <LABEL_VALUE>
NO

$$$$
>  <SEQ>
AGTCTCGTTTCCTGTGCGCTGTGGCCACCTGGCAGC

>  <TARGET_OF_ASSAY>
ETS1 (UniProt P14921)

>  <LABEL_VALUE>
NO

$$$$
>  <SEQ>
AGAATTACCAGGAAGCCGAGCGCTGCGGGCTAGCGG

>  <TARGET_OF_ASSAY>
ETS1 (UniProt P14921)

>  <LABEL_VALUE>
NO

$$$$
>  <SEQ>
TCTTGCCCGGGTCGGAAATGGTGGTCACGAGCGCTT

>  <TARGET_OF_ASSAY>
ETS1 (UniProt P14921)

>  <LABEL_VALUE>
NO

$$$$
>  <SEQ>
AACAACAGGATGCTCTCTAGTCTAACAGTGGTAACA

>  <TARGET_OF_ASSAY>
ETS1 (UniProt P14921)

>  <LABEL_VALUE>
NO

$$$$
>  <SEQ>
CGGCAGGGAAGCAGGAAACCGCGAGTGGAGAAAGGG

>  <TARGET_OF_ASSAY>
ETS1 (UniProt P14921)

>  <LABEL_VALUE>
YES

$$$$
>  <SEQ>
CCCGTTCTCCGGAAGTGCGCGGGTTGGAGCTGAAGC

>  <TARGET_OF_ASSAY>
ETS1 (UniProt P14921)

>  <LABEL_VALUE>
YES

$$$$
>  <SEQ>
GGGCAGCATCCTGTGCCTGCTTCTCTTACCCACATC

>  <TARGET_OF_ASSAY>
ETS1 (UniProt P14921)

>  <LABEL_VALUE>
NO

$$$$
>  <SEQ>
TGCTTAGAACACGGAAACACTGAGGTTTTACTTTGA

>  <TARGET_OF_ASSAY>
ETS1 (UniProt P14921)

>  <LABEL_VALUE>
NO

$$$$
>  <SEQ>
CCTGTACGGAAGCTACTCTGGTTTCATGTGGTTTCA

>  <TARGET_OF_ASSAY>
ETS1 (UniProt P14921)

>  <LABEL_VALUE>
NO

$$$$
>  <SEQ>
TTCTGCTACATCCTGCCCACTCCCTGTGGCTTCCAC

>  <TARGET_OF_ASSAY>
ETS1 (UniProt P14921)

>  <LABEL_VALUE>
NO

$$$$
>  <SEQ>
ATACCGGCGCATCCGGATTTTGAAGCCGCAGTGGAC

>  <TARGET_OF_ASSAY>
ETS1 (UniProt P14921)

>  <LABEL_VALUE>
NO

$$$$
>  <SEQ>
GCACACCGGAACTCACACCTGAAACCACAGAACCAA

>  <TARGET_OF_ASSAY>
ETS1 (UniProt P14921)

>  <LABEL_VALUE>
YES

$$$$
>  <SEQ>
TGCTTAGCAGGAAGTTAGTCTGCCTGTGGTAGCTCC

>  <TARGET_OF_ASSAY>
ETS1 (UniProt P14921)

>  <LABEL_VALUE>
YES

$$$$
>  <SEQ>
AAACCCCAAACAGGAAGTGGTAAAGCAACCTGCATC

>  <TARGET_OF_ASSAY>
ETS1 (UniProt P14921)

>  <LABEL_VALUE>
YES

$$$$
>  <SEQ>
CCTGAGCGCCCGGAAGGAAGGCTGTGGTAGGTTGTC

>  <TARGET_OF_ASSAY>
ETS1 (UniProt P14921)

>  <LABEL_VALUE>
NO

$$$$
>  <SEQ>
ACCATCCTGTAGTCTGTTAAGTGAGCAACCGCATTA

>  <TARGET_OF_ASSAY>
ETS1 (UniProt P14921)

>  <LABEL_VALUE>
NO

$$$$
>  <SEQ>
AGGACACAGACAGGAAACCCGCAGGCTTTGTTTTTT

>  <TARGET_OF_ASSAY>
ETS1 (UniProt P14921)

>  <LABEL_VALUE>
YES

$$$$
>  <SEQ>
ACCAAACGTCACATCCGCGGTGCTGCTGTAATCCCA

>  <TARGET_OF_ASSAY>
ETS1 (UniProt P14921)

>  <LABEL_VALUE>
NO

$$$$
>  <SEQ>
GCACCGTGGCACTTCCGCGAGCGCCGCAGGCCCTGC

>  <TARGET_OF_ASSAY>
ETS1 (UniProt P14921)

>  <LABEL_VALUE>
NO

$$$$
>  <SEQ>
TGGGGGCGGAAGCCTAAACCCCTCCCGCAGCCAGTC

>  <TARGET_OF_ASSAY>
ETS1 (UniProt P14921)

>  <LABEL_VALUE>
NO

$$$$
>  <SEQ>
CCTCATTTCCGGGCTGTTTGCGCGCAAGCCCACATC

>  <TARGET_OF_ASSAY>
ETS1 (UniProt P14921)

>  <LABEL_VALUE>
NO

$$$$
>  <SEQ>
GAAACCTCACTCTGAGGATGTGGGTTCTGCCTTCTT

>  <TARGET_OF_ASSAY>
ETS1 (UniProt P14921)

>  <LABEL_VALUE>
NO

$$$$
>  <SEQ>
AAGGTGGAAAAAGGATGTGGTTCTAAGCTGGCTTCT

>  <TARGET_OF_ASSAY>
ETS1 (UniProt P14921)

>  <LABEL_VALUE>
NO

$$$$
>  <SEQ>
AGTAGGATGGGAGGAAGTGGTTTGTAAGAGGAGGAC

>  <TARGET_OF_ASSAY>
ETS1 (UniProt P14921)

>  <LABEL_VALUE>
YES

$$$$
>  <SEQ>
CTAACCCTGCTTCCTCTTAGTGGTTTCCCCCAACCT

>  <TARGET_OF_ASSAY>
ETS1 (UniProt P14921)

>  <LABEL_VALUE>
NO

$$$$
>  <SEQ>
ATACAGACACAGGAAGTTGTGGGGAGTGCAAAAGCC

>  <TARGET_OF_ASSAY>
ETS1 (UniProt P14921)

>  <LABEL_VALUE>
YES

$$$$
>  <SEQ>
CTCCGATTGAGAACAGGAAGCCACAGGCCAATACAA

>  <TARGET_OF_ASSAY>
ETS1 (UniProt P14921)

>  <LABEL_VALUE>
YES

$$$$
>  <SEQ>
CTGCACTTCCGGTCAGGCGGTCGGGCTGCGGGGCCC

>  <TARGET_OF_ASSAY>
ETS1 (UniProt P14921)

>  <LABEL_VALUE>
YES

$$$$
>  <SEQ>
TGAGTCACATCCTGCAGGGCTGCGGTATCCTGGCTT

>  <TARGET_OF_ASSAY>
ETS1 (UniProt P14921)

>  <LABEL_VALUE>
NO

$$$$
>  <SEQ>
ACACCGCTCAGGAAGACAAAGCCACACCTCACACCA

>  <TARGET_OF_ASSAY>
ETS1 (UniProt P14921)

>  <LABEL_VALUE>
NO

$$$$
>  <SEQ>
TGCGCCGCGGAACCCGGAAGTGGTCACGGAGCTCGG

>  <TARGET_OF_ASSAY>
ETS1 (UniProt P14921)

>  <LABEL_VALUE>
YES

$$$$
>  <SEQ>
AAATCCACTCAGAGGAAACCACAGGCCTGGCCCAGC

>  <TARGET_OF_ASSAY>
ETS1 (UniProt P14921)

>  <LABEL_VALUE>
NO

$$$$
>  <SEQ>
GGCTTCCGGCGGGGTACCCTCCTCTGTGGGCGGGGC

>  <TARGET_OF_ASSAY>
ETS1 (UniProt P14921)

>  <LABEL_VALUE>
NO

$$$$
>  <SEQ>
GCCCTGACCCACATCCTGCCGCAGCCTGCTTGTCCT

>  <TARGET_OF_ASSAY>
ETS1 (UniProt P14921)

>  <LABEL_VALUE>
NO

$$$$
>  <SEQ>
TGCGCCGGGAGGAAGGGCTCCAAAACCACAGGGCGG

>  <TARGET_OF_ASSAY>
ETS1 (UniProt P14921)

>  <LABEL_VALUE>
NO

$$$$
>  <SEQ>
TCCCCTTTCCGGGAAGGGTTGGGGATCTGACCACGT

>  <TARGET_OF_ASSAY>
ETS1 (UniProt P14921)

>  <LABEL_VALUE>
NO

$$$$
>  <SEQ>
CATAGGAAGTGCTCAGCTCTCCTCCACCGCAAGTTT

>  <TARGET_OF_ASSAY>
ETS1 (UniProt P14921)

>  <LABEL_VALUE>
YES

$$$$
>  <SEQ>
CACTTCCTGCCCTCTTCCACTTTCAAAACCACATCA

>  <TARGET_OF_ASSAY>
ETS1 (UniProt P14921)

>  <LABEL_VALUE>
NO

$$$$
>  <SEQ>
CTTTGCTGCAGGATGTTCTAACCACAAGCCCAGGAG

>  <TARGET_OF_ASSAY>
ETS1 (UniProt P14921)

>  <LABEL_VALUE>
YES

$$$$
